Molecular target: APOL1
Conditions: ASO, A431, 2 µM
After the bases stand the sugars from the 5' end (letter, count) and the backbone: PS all phosphorothioate, else s phosphorothioate and o phosphodiester by linkage. Methylation of C is not given here. e = 2'-O-(2-methoxyethyl) (MOE); k = constrained ethyl (cEt); d = 2'-deoxy (DNA)
Each record's class is read off its target mRNA inhibition using these ranges: Low = under 70%, Mid = from 70% up to 90%, High = 90% and over

q: For GAAGATTGGCTCTGGC (sugars kkddddkekekkdddd, PS) , which target mRNA inhibition bin applies?
a: Low

q: For TAATTCTATTAGAGGG (sugars kkddddekekeddddd, PS) , which target mRNA inhibition bin applies?
a: Low

q: For CAGTTTTGTAAGTGCA (sugars kkddddkdkdkddddd, PS) , which target mRNA inhibition bin applies?
a: High

q: For ATCAGATGGGTACTTC (sugars kdddddkekekddddd, PS) , which target mRNA inhibition bin applies?
a: Mid

q: For TTATTCTCATGGTACA (sugars kkddddkekekddddd, PS) , which target mRNA inhibition bin applies?
a: Low

q: For GAAGATTGGCTCTGGC (sugars kddddkekekeddddd, PS) , which target mRNA inhibition bin applies?
a: Low

q: For TTGTAAGTGCAACCAA (sugars k3 d4 k3 e1 d5, PS) , which target mRNA inhibition bin applies?
a: Mid

q: For GCAGTTTTGTAAGTGC (sugars k3 d4 k3 e1 d5, PS) , which target mRNA inhibition bin applies?
a: Mid

q: For AGCTTTAAACTCAGGT (sugars kkdddddkekeddddd, PS) , which target mRNA inhibition bin applies?
a: High

q: For TTTGTAAGTGCAACCA (sugars k3 d5 k3 d5, PS) , which target mRNA inhibition bin applies?
a: High

q: For TTTATACCAGTGTCTT (sugars kkkddddkekekdddd, PS) , which target mRNA inhibition bin applies?
a: Mid

q: For TATTTCTTGATGTGGT (sugars kkddddekekeddddd, PS) , which target mRNA inhibition bin applies?
a: High

q: For AAGCTTTAAACTCAGG (sugars kkkddddkekekdddd, PS) , which target mRNA inhibition bin applies?
a: Low

q: For AACACATCATTGGGTT (sugars k3 d4 k3 e1 d5, PS) , which target mRNA inhibition bin applies?
a: Low

q: For CTTTAAACTCAGGTGA (sugars k3 d4 k3 e1 d5, PS) , which target mRNA inhibition bin applies?
a: Low

q: For TATTTCTTGATGTGGT (sugars kkddddkekekddddd, PS) , which target mRNA inhibition bin applies?
a: High

q: For ATTCTCATGGTACAGG (sugars k3 d4 k3 e1 d5, PS) , which target mRNA inhibition bin applies?
a: High

====

Kindly supply the reported target mRNA inhibition values for the records listed here.
Target: MALAT1
Conditions: ASO, A431, 0.005 µM
After the bases stand the sugars from the 5' end (letter, count) and the backbone: PS all phosphorothioate, else s phosphorothioate and o phosphodiester by linkage. Methylation of C is not given here. k = constrained ethyl (cEt); d = 2'-deoxy (DNA)
Answer in %, number only, no unit symbol.

q: What target mRNA inhibition appears in the records for this sequence with MALAT1? CCTTTATCACTCAGCT (sugars k3 d10 k3, PS)
a: 54

q: What target mRNA inhibition appears in the records for this sequence with MALAT1? TGCTCCCCGCCTGAGC (sugars k3 d10 k3, PS)
a: 24

q: What target mRNA inhibition appears in the records for this sequence with MALAT1? GAGATACCTGTCTGAG (sugars k3 d10 k3, PS)
a: 40

q: What target mRNA inhibition appears in the records for this sequence with MALAT1? GTCACTGGATAAGTAT (sugars k3 d10 k3, PS)
a: 48

q: What target mRNA inhibition appears in the records for this sequence with MALAT1? CAACTTGGAAGTTGAT (sugars k3 d10 k3, PS)
a: 10

q: What target mRNA inhibition appears in the records for this sequence with MALAT1? CATCCAAACTCTACAT (sugars k3 d10 k3, PS)
a: 23

q: What target mRNA inhibition appears in the records for this sequence with MALAT1? CAAGTTAAACTTATCT (sugars k3 d10 k3, PS)
a: 16

q: What target mRNA inhibition appears in the records for this sequence with MALAT1? AGAAGAATCCCCCCCA (sugars k3 d10 k3, PS)
a: -13

q: What target mRNA inhibition appears in the records for this sequence with MALAT1? AGCTTGTTCACCTGTT (sugars k3 d10 k3, PS)
a: 37

q: What target mRNA inhibition appears in the records for this sequence with MALAT1? TAAGAACTCCACAGCT (sugars k3 d10 k3, PS)
a: 41

q: What target mRNA inhibition appears in the records for this sequence with MALAT1? TTCGAGAAATCGGAGC (sugars k3 d10 k3, PS)
a: -11

q: What target mRNA inhibition appears in the records for this sequence with MALAT1? CTTCTATAGTCTGAAG (sugars k3 d10 k3, PS)
a: 18

q: What target mRNA inhibition appears in the records for this sequence with MALAT1? CAAATTGCACTCGCTC (sugars k3 d10 k3, PS)
a: 34

q: What target mRNA inhibition appears in the records for this sequence with MALAT1? TCTGTTATGTTCACCT (sugars k3 d10 k3, PS)
a: 52

q: What target mRNA inhibition appears in the records for this sequence with MALAT1? CTCAGTCCTAGCTTCA (sugars k3 d10 k3, PS)
a: 42

q: What target mRNA inhibition appears in the records for this sequence with MALAT1? GCTACTTAGCTGTGGT (sugars k3 d10 k3, PS)
a: 28

q: What target mRNA inhibition appears in the records for this sequence with MALAT1? CGGTTAAAAATAGGTT (sugars k3 d10 k3, PS)
a: 6

q: What target mRNA inhibition appears in the records for this sequence with MALAT1? CTCCAGCATAAAGCTG (sugars k3 d10 k3, PS)
a: 12

q: What target mRNA inhibition appears in the records for this sequence with MALAT1? TGTATTAATCTCTATC (sugars k3 d10 k3, PS)
a: 41

q: What target mRNA inhibition appears in the records for this sequence with MALAT1? GTCTCATACACTCACT (sugars k3 d10 k3, PS)
a: -4

q: What target mRNA inhibition appears in the records for this sequence with MALAT1? TACTGCATTTACTTGC (sugars k3 d10 k3, PS)
a: 20

q: What target mRNA inhibition appears in the records for this sequence with MALAT1? GCCCCTGCGCTGGCTG (sugars k3 d10 k3, PS)
a: 12

q: What target mRNA inhibition appears in the records for this sequence with MALAT1? TGTTAACAGCTGCCTG (sugars k3 d10 k3, PS)
a: 39

q: What target mRNA inhibition appears in the records for this sequence with MALAT1? TCTTAGTAACCTATTG (sugars k3 d10 k3, PS)
a: 19

q: What target mRNA inhibition appears in the records for this sequence with MALAT1? TCTAGGCCATCATACT (sugars k3 d10 k3, PS)
a: 40

q: What target mRNA inhibition appears in the records for this sequence with MALAT1? CACTGATCACTTTAGA (sugars k3 d10 k3, PS)
a: 41

q: What target mRNA inhibition appears in the records for this sequence with MALAT1? TGGAAACCAGGAGTGC (sugars k3 d10 k3, PS)
a: 14

q: What target mRNA inhibition appears in the records for this sequence with MALAT1? ATACTGAAAACTCCCC (sugars k3 d10 k3, PS)
a: 14

q: What target mRNA inhibition appears in the records for this sequence with MALAT1? GTATTATAATAGAGCT (sugars k3 d10 k3, PS)
a: 4

q: What target mRNA inhibition appears in the records for this sequence with MALAT1? GAAACCAGGAGTGCCA (sugars k3 d10 k3, PS)
a: 4

q: What target mRNA inhibition appears in the records for this sequence with MALAT1? GATCACCTTCCGCCGC (sugars k3 d10 k3, PS)
a: 6

q: What target mRNA inhibition appears in the records for this sequence with MALAT1? ATGAGTATAAGCCTGA (sugars k3 d10 k3, PS)
a: 55

q: What target mRNA inhibition appears in the records for this sequence with MALAT1? CATTGGGAGTTACTTG (sugars k3 d10 k3, PS)
a: 32

q: What target mRNA inhibition appears in the records for this sequence with MALAT1? CTCTGATCTGCGGCCC (sugars k3 d10 k3, PS)
a: -6

q: What target mRNA inhibition appears in the records for this sequence with MALAT1? GCCTCAATGCCTACCG (sugars k3 d10 k3, PS)
a: -11

q: What target mRNA inhibition appears in the records for this sequence with MALAT1? GCACTAAAGATCACTG (sugars k3 d10 k3, PS)
a: 23

q: What target mRNA inhibition appears in the records for this sequence with MALAT1? GCCCGCTTTCCCCCTT (sugars k3 d10 k3, PS)
a: -29

q: What target mRNA inhibition appears in the records for this sequence with MALAT1? CTACTCTTCTAAGTCT (sugars k3 d10 k3, PS)
a: 49

q: What target mRNA inhibition appears in the records for this sequence with MALAT1? GTTACCATAAGTAAGT (sugars k3 d10 k3, PS)
a: 2

q: What target mRNA inhibition appears in the records for this sequence with MALAT1? CTTATCCCTAACATGC (sugars k3 d10 k3, PS)
a: 41

q: What target mRNA inhibition appears in the records for this sequence with MALAT1? CGGCCCCCCAGTTGCC (sugars k3 d10 k3, PS)
a: 17

q: What target mRNA inhibition appears in the records for this sequence with MALAT1? ATATTTAACTTCCCCC (sugars k3 d10 k3, PS)
a: 30

q: What target mRNA inhibition appears in the records for this sequence with MALAT1? GCTTACAGATTTGCTG (sugars k3 d10 k3, PS)
a: 8

q: What target mRNA inhibition appears in the records for this sequence with MALAT1? TCTAACCCAGTTTGTC (sugars k3 d10 k3, PS)
a: 31

q: What target mRNA inhibition appears in the records for this sequence with MALAT1? TTTACACCTCAGTACG (sugars k3 d10 k3, PS)
a: 35

q: What target mRNA inhibition appears in the records for this sequence with MALAT1? CTCGGGCTGCAGGCTG (sugars k3 d10 k3, PS)
a: 19

q: What target mRNA inhibition appears in the records for this sequence with MALAT1? GCAATTCAAAATCCTG (sugars k3 d10 k3, PS)
a: 51

Reference for the values: the OligoGym collection
